# Test system: MS2 coat protein
# assay_notes: apparent KD of MS2 coat protein; designed switch direction (-1 OFF switch, 1 ON switch): 1; higher = weaker reporter binding
# conditions: input ligand: microRNA oligo, concentration not stated
apparent KD of MS2 coat protein values for the sequences below.
State the answer as a number, implicitly in nM.

Previously resolved entries follow.
polymer_sequence	apparent KD of MS2 coat protein, nM
AGGCUCAGACGAGGAUAUAUGCGAUCACAUGAGGAUCACCCAUGUCUCGAGCUUCGGCUCGAGGCAUAGAAGGUGUCUGAGCCA [SSNG2/4-C1] (Eterna round: R96, puzzle: Same State NG 2)	111
GCCCGACUCACAGGAUAUGUACCGCCCGAAACAACAGAAGGGUGAGAUCCGGCAUGCACUGACAUGAGGAUCACCCAUGUCCUU [Gebege] (Eterna round: R96, puzzle: Same State NG 1)	311

Next:
Input line: Fill blank: measured apparent KD of MS2 coat protein of the sequence GAGGGCGAAAGCAACAUGAGGAUCACCCAUGUCCUCGGAGGGCAGGAUAUCCGGCGGUAGCCGAAGGAGAAGGGUCGAAAAGAA [AK SSNG3-V2-34] (Eterna round: R96, puzzle: Same State NG 3) is ____.
Output line: 292
